- Test System: Cx43 hemichannels (Mus musculus, UniProt P23242)
- Sequence (P23242 whole entry): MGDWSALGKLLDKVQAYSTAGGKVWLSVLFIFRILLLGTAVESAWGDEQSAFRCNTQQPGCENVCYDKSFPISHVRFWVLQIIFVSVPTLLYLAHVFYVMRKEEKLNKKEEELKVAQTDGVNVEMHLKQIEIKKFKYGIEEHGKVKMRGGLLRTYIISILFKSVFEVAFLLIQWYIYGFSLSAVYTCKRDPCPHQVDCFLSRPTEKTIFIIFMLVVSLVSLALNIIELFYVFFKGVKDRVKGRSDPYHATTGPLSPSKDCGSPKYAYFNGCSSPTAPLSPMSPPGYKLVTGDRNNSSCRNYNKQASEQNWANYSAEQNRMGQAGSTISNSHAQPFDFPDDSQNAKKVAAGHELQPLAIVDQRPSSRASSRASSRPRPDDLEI
- Test Name: Etd+ uptake in cultured astrocytes treated with TNF-α/IL-1β
- Type: cell-based, mouse (OF1)
- Parameters: endogenous in cells; host or cells: primary cortical astrocytes from newborn OF1 mice
- Setup Conditions: astrocyte cultures, "in the 250 μM range", read-out: Half-maximal effect concentration, hemichannels opened with TNF-α/IL-1β
Where no end group is shown, it is not given here.
Observable: IC50

IC50 measured on KQIEIKKFK [Gap19, KQIEIKKFK] = ~250 µM
